Test system: primary forebrain neurons
Test: cells
Conditions: Mus musculus, Neuron, 24 h, read-out: Elongation (Dend Mt length) EC50
Where a name gives a salt, the structure may show the parent alone.
Parameter: log10 EC50. Scope: all listed entries.
Response schema: value (number) is log10 of EC50 in units of µM.

Worked cases, log10 EC50 given:
• CCCCOc1ccc(C(=O)CCN2CCCCC2)cc1 [DYCLONINE HYDROCHLORIDE] = 0.18
• O=C(/C=C/c1ccccc1)c1ccc(O)cc1 [4′-HYDROXYCHALCONE] = 0.36
• COc1ccc2c(c1)[nH]c1c(C)nccc12 [HARMINE] = 0.23
• COC(=O)[C@@H]1[C@H]2C[C@H]3c4[nH]c5ccccc5c4CCN3C[C@@H]2CC[C@@H]1O [YOHIMBINE HYDROCHLORIDE] = -0.70
• COc1cc(O)c2c(=O)c(O)c(-c3ccc(O)c(O)c3)oc2c1 [RHAMNETIN] = -0.70
• C#CCN(C)CCCOc1ccc(Cl)cc1Cl [CLORGILINE HYDROCHLORIDE] = 0.70

Field log10 EC50 (system: primary forebrain neurons) for entry CCN(CCCc1ccccc1)CCCc1ccccc1 [ALVERINE CITRATE] = 0.46

---

Tested on: primary forebrain neurons
Assay: cells
Settings: rescreen, 12.5 μM, 24 h, vs DMSO wells
Counter-ions that a name gives are not always drawn.
measured.metric: Dendritic Mt CA (robust Z-scores)
// note: answer is a bare numeric in robust Z-scores

Worked cases, Dendritic Mt CA given:
• O=C(CCCN1CCC(O)(c2ccc(Cl)cc2)CC1)c1ccc(F)cc1 = 2.99
• COC(=O)C[C@H]1C(C)(C)[C@@H](OC(C)=O)[C@@H]2CC3C4CC(=O)O[C@@H](c5ccoc5)[C@]4(C)CCC3[C@@]1(C)C2=O (stereo partly drawn) [DIHYDROFISSINOLIDE] = 2.77
• CCCCOc1ccc(C(=O)CCN2CCCCC2)cc1 [DYCLONINE HYDROCHLORIDE] = 3.89
• COc1cc(OC)c2c(c1)O[C@H](c1ccc(OC)c(OC)c1)[C@@H](O)C2 = 2.44
• Cc1ccccc1C(OCCN(C)C)c1ccccc1 (stereo not drawn) [ORPHENADRINE CITRATE] = 3.21
• COc1cc(O)c2c(=O)c(O)c(-c3ccc(O)c(O)c3)oc2c1 = 4.48
• C=C(C)c1cc2cc(C(C)=O)c(O)cc2o1 = 4.22
• O=c1cc(-c2ccccc2)oc2ccc(O)cc12 [6-HYDROXYFLAVONE] = 2.88

Documented Dendritic Mt CA of CN1CCOC(c2ccccc2)c2ccccc2C1 (stereo not drawn) : 3.74

---

Tested on: primary forebrain neurons
Assay: cells
Settings: rescreen, 12.5 μM, 24 h, vs DMSO wells
Where a name gives a salt, the structure may show the parent alone.
Parameter: Dendritic Mt CA. Scope: all listed entries.
// note: answer is a bare numeric in robust Z-scores

Worked cases, Dendritic Mt CA given:
• O=C(/C=C/c1ccccc1)c1ccc(O)cc1O [2′,4′-DIHYDROXYCHALCONE] = 3.39
• C[C@@H](N)[C@@H](O)c1ccccc1 = 3.14

Shifting focus to the compound that follows.
Documented Dendritic Mt CA of CN1CCc2cccc3c2[C@H]1Cc1ccc(O)c(O)c1-3 [APOMORPHINE HYDROCHLORIDE] : 2.10
